Tested on: CYP3A4/5
Test: Reversible CYP inhibition in human liver microsomes
Details: human, human liver microsomes, pH 7.4, probe midazolam (mdz), Percent of Control Activity, CYP 3A4/5 (mdz), 0.158 µM, Zero-Minute Preincubation
Attribute measured: activity at 0.158 µM (%)
Entry rule: numbers only, all in %.

// activity at 0.158 µM lookup, compound = COc1cccc2[nH]c(C(=O)N[C@@H](CC(C)C)C(=O)N[C@@H](C[C@@H]3CCNC3=O)C(=O)COP(=O)(O)O)cc12 , result: 95

###

Assay: Plasma protein binding by equilibrium dialysis
Details: monkey, plasma, pH 7.4, Unbound fraction fu (%CV), monkey plasma
Attribute measured: fraction unbound at 6 h
Answer using only a numeral; do not append any unit.

Record summary for COc1cccc2[nH]c(C(=O)N[C@@H](CC(C)C)C(=O)N[C@@H](C[C@@H]3CCNC3=O)C(=O)CO)cc12 : reported fraction unbound at 6 h = 0.441
